In this section, each of the molecules is paired with its reported selectivity ratio.
Assay name: Selectivity index, ratio of IC50 for African green monkey Vero cells to IC50 for chloroquine-sensitive Plasmodium falciparum D6
Format: toxicity, cell-based
Condition details: read-out: Ratio IC50
Just the number, please.

// known answers, use as guide
> print(dat)
                            compound.string  experimental.result
1  Cc1ccc(Nc2ccnc(NCCNc3ccnc4cc(Cl)ccc34)n2)cc1                  135
2  Clc1ccc2c(NCCCCNc3nccc(Nc4ccc(Br)cc4)n3)ccnc2c1                  214
3  Clc1ccc2c(NCCCNc3nccc(Nc4ccccc4)n3)ccnc2c1                  676
4  COc1ccc(Nc2ccnc(NCCCCNc3ccnc4cc(Cl)ccc34)n2)cc1                  223
5  COc1cc(Nc2ccnc(NCCCNc3ccnc4cc(Cl)ccc34)n2)cc(OC)c1                  340

I have this molecule here, Clc1ccc(Nc2ccnc(NCCCCNc3ccnc4cc(Cl)ccc34)n2)cc1 , and I need its recorded selectivity ratio.
251

Field entry: Clc1ccc2c(NCCCNc3nccc(Nc4ccc(Br)cc4)n3)ccnc2c1
228

Check Clc1ccc(Nc2ccnc(NCCCNc3ccnc4cc(Cl)ccc34)n2)cc1 too.
286

Entry to check: COc1cc(Nc2ccnc(NCCCCNc3ccnc4cc(Cl)ccc34)n2)cc(OC)c1
285

What do you have for Clc1ccc2c(NCCCCNc3nccc(Nc4ccccc4)n3)ccnc2c1 ?
326

Another molecule: Clc1ccc(Nc2ccnc(NCCNc3ccnc4cc(Cl)ccc34)n2)cc1
335

###

Assay name: Selectivity index, ratio of IC50 for African green monkey Vero cells to IC50 for chloroquine-resistant Plasmodium falciparum W2
Format: toxicity, cell-based
Condition details: read-out: Ratio IC50
Note to self: class labels come from recorded selectivity ratio, ranges listed here: low (below 90), middle (90 to below 200), high (200 or more)

Record excerpt, results attached:
> print(dat)
                            compound.string  label.class
1  Clc1ccc(Nc2ccnc(NCCCNc3ccnc4cc(Cl)ccc34)n2)cc1          low
2  Clc1ccc2c(NCCCCNc3nccc(Nc4ccc(Br)cc4)n3)ccnc2c1       middle
3  COc1ccc(Nc2ccnc(NCCCNc3ccnc4cc(Cl)ccc34)n2)cc1       middle
4  COc1ccc(Nc2ccnc(NCCCCNc3ccnc4cc(Cl)ccc34)n2)cc1       middle
5  Cc1ccc(Nc2ccnc(NCCCNc3ccnc4cc(Cl)ccc34)n2)cc1          low

For the record Clc1ccc2c(NCCCNc3nccc(Nc4ccc(Br)cc4)n3)ccnc2c1 , report the class its selectivity ratio corresponds to.
high

Ok, now Clc1ccc(Nc2ccnc(NCCNc3ccnc4cc(Cl)ccc34)n2)cc1
high

Okay, and Fc1ccc(Nc2ccnc(NCCCNc3ccnc4cc(Cl)ccc34)n2)cc1 ?
middle

Another compound to check: Clc1ccc2c(NCCCCNc3nccc(Nc4ccccc4)n3)ccnc2c1
low

Proceed to COc1cc(Nc2ccnc(NCCNc3ccnc4cc(Cl)ccc34)n2)cc(OC)c1
high

Can you handle Cc1ccc(Nc2ccnc(NCCNc3ccnc4cc(Cl)ccc34)n2)cc1 next?
middle

Same lookup for Clc1ccc(Nc2ccnc(NCCCCNc3ccnc4cc(Cl)ccc34)n2)cc1 , please.
high

Next entry: Cc1ccc(Nc2ccnc(NCCCCNc3ccnc4cc(Cl)ccc34)n2)cc1
low

Try COc1cc(Nc2ccnc(NCCCNc3ccnc4cc(Cl)ccc34)n2)cc(OC)c1 next.
middle

Further, for COc1cc(Nc2ccnc(NCCCCNc3ccnc4cc(Cl)ccc34)n2)cc(OC)c1 ?
middle

###

# reported selectivity ratio; entries follow
Assay name: Selectivity index, ratio of IC50 for African green monkey Vero cells to IC50 for chloroquine-sensitive Plasmodium falciparum D6
Type: toxicity, cell-based
Condition details: read-out: Ratio IC50
Output: the number by itself.

For orientation, consider the following solved cases.
> print(dat)
                            compound.string    reported.metric  experimental.result
1  Cc1ccc(Nc2ccnc(NCCCNc3ccnc4cc(Cl)ccc34)n2)cc1  selectivity ratio                  121
2  COc1ccc(Nc2ccnc(NCCCNc3ccnc4cc(Cl)ccc34)n2)cc1  selectivity ratio                  333
3  Cc1ccc(Nc2ccnc(NCCCCNc3ccnc4cc(Cl)ccc34)n2)cc1  selectivity ratio                  140

Moving on to another compound below.
Bench note: what selectivity ratio did Fc1ccc(Nc2ccnc(NCCCNc3ccnc4cc(Cl)ccc34)n2)cc1 show?
490

###

Tested on: Plasmodium falciparum
Assay name: Antimalarial activity against chloroquine-sensitive Plasmodium falciparum D6 assessed as inhibition of parasite growth after 72 hrs by parasite LDH release assay
Assay type: functional, organism-based
Condition details: D6, 72 h
Reported metric: pIC50
The quantity pIC50 is defined as the negative base-10 logarithm of the molar concentration.

Consider the worked cases shown below.
> print(dat)
                            compound.string  experimental.result
1  Clc1ccc(Nc2ccnc(NCCNc3ccnc4cc(Cl)ccc34)n2)cc1                 7.33
2  Cc1ccc(Nc2ccnc(NCCCCNc3ccnc4cc(Cl)ccc34)n2)cc1                 6.86
3  COc1cc(Nc2ccnc(NCCCNc3ccnc4cc(Cl)ccc34)n2)cc(OC)c1                 7.42
4  Cc1ccc(Nc2ccnc(NCCNc3ccnc4cc(Cl)ccc34)n2)cc1                 7.00
5  Clc1ccc2c(NCCNc3nccc(Nc4ccccc4)n3)ccnc2c1                 5.82

Entry Clc1ccc(Nc2ccnc(NCCCCNc3ccnc4cc(Cl)ccc34)n2)cc1 has what pIC50?
7.36

Lookup Fc1ccc(Nc2ccnc(NCCCCNc3ccnc4cc(Cl)ccc34)n2)cc1
5.50

###

Tested on: Vero
Assay name: Cytotoxicity against African green monkey Vero cells after 72 hrs by neutral red assay
Type: cell-based, Chlorocebus sabaeus
Condition details: Chlorocebus sabaeus, Vero, 48 h; in the assay text read “after 48 hrs” for “after 72 hrs”; read-out: IC50
Reported metric: pIC50
The scale used: pIC50 is minus the common logarithm of the concentration in molar units.

I'd like to know its pIC50. The compound in question is Clc1ccc2c(NCCCCNc3nccc(Nc4ccccc4)n3)ccnc2c1
4.84

###

Test system: Plasmodium falciparum
Assay name: Antimalarial activity against chloroquine-sensitive Plasmodium falciparum D6 assessed as inhibition of parasite growth after 72 hrs by parasite LDH release assay
Assay type: functional, organism-based
Condition details: D6, 72 h
Reported metric: pIC50
# reply with the number alone; pIC50 is -log10 of concentration in mol/L

> print(dat)
                            compound.string            target.desc  reported.metric  experimental.result
1  Fc1ccc(Nc2ccnc(NCCNc3ccnc4cc(Cl)ccc34)n2)cc1  Plasmodium falciparum            pIC50                 5.22
2  Fc1ccc(Nc2ccnc(NCCCNc3ccnc4cc(Cl)ccc34)n2)cc1  Plasmodium falciparum            pIC50                 7.55
3  Clc1ccc2c(NCCNc3nccc(Nc4ccc(Br)cc4)n3)ccnc2c1  Plasmodium falciparum            pIC50                 7.43
4  Cc1ccc(Nc2ccnc(NCCCNc3ccnc4cc(Cl)ccc34)n2)cc1  Plasmodium falciparum            pIC50                 6.82

State its pIC50 on Plasmodium falciparum: Clc1ccc2c(NCCCCNc3nccc(Nc4ccccc4)n3)ccnc2c1
7.36

Entry COc1cc(Nc2ccnc(NCCNc3ccnc4cc(Cl)ccc34)n2)cc(OC)c1 please
7.48

For COc1ccc(Nc2ccnc(NCCCNc3ccnc4cc(Cl)ccc34)n2)cc1 then?
7.40

Do the same for Clc1ccc2c(NCCCNc3nccc(Nc4ccccc4)n3)ccnc2c1 please
7.72

Okay, and COc1ccc(Nc2ccnc(NCCCCNc3ccnc4cc(Cl)ccc34)n2)cc1 ?
7.30

Proceed to COc1cc(Nc2ccnc(NCCCCNc3ccnc4cc(Cl)ccc34)n2)cc(OC)c1
7.36

Then Clc1ccc(Nc2ccnc(NCCCNc3ccnc4cc(Cl)ccc34)n2)cc1 ?
7.33

###

Readings of pIC50 for the listed compounds
System: Vero
Assay name: Cytotoxicity against African green monkey Vero cells after 72 hrs by neutral red assay
Format: cell-based, Chlorocebus sabaeus
Condition details: Chlorocebus sabaeus, Vero, 48 h; in the assay text read “after 48 hrs” for “after 72 hrs”; read-out: IC50
// pIC50: -log10(molar conc.)

> print(dat)
                            compound.string  experimental.result
1  COc1ccc(Nc2ccnc(NCCCNc3ccnc4cc(Cl)ccc34)n2)cc1                 4.88
2  Clc1ccc2c(NCCCCNc3nccc(Nc4ccc(Br)cc4)n3)ccnc2c1                 5.00
3  Clc1ccc(Nc2ccnc(NCCCNc3ccnc4cc(Cl)ccc34)n2)cc1                 4.87

Form field - read-out: pIC50; system: Vero; submitted item: Cc1ccc(Nc2ccnc(NCCCCNc3ccnc4cc(Cl)ccc34)n2)cc1
4.72

Try Clc1ccc2c(NCCCNc3nccc(Nc4ccc(Br)cc4)n3)ccnc2c1 next.
4.95

Next compound: COc1cc(Nc2ccnc(NCCCCNc3ccnc4cc(Cl)ccc34)n2)cc(OC)c1
4.90

Also, COc1cc(Nc2ccnc(NCCCNc3ccnc4cc(Cl)ccc34)n2)cc(OC)c1 please.
4.89

And the next one, Clc1ccc2c(NCCCNc3nccc(Nc4ccccc4)n3)ccnc2c1 ?
4.89

Now the compound Fc1ccc(Nc2ccnc(NCCCNc3ccnc4cc(Cl)ccc34)n2)cc1
4.86

Please give the result for Cc1ccc(Nc2ccnc(NCCCNc3ccnc4cc(Cl)ccc34)n2)cc1 too.
4.73

src = ChEMBL document CHEMBL3351898
